Overview of reported pKi across a group of molecules:
- Study system: JAK1 (Homo sapiens, UniProt P23458)
- Construct: made in house; host or cells: SF9 insect cells (baculovirus)
- Sequence (P23458 852-1154): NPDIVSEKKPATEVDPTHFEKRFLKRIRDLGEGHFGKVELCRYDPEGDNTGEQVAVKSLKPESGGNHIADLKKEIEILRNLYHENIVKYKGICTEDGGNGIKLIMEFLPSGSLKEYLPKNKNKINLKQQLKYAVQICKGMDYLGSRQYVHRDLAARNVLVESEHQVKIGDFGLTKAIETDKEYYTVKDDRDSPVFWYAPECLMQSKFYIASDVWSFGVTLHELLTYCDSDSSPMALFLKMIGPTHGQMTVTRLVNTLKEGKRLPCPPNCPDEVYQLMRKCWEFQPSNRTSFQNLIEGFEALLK
- Assay info: JAK1 inhibition (Table 4)
- Assay type: biochemical
- Study conditions: read-out: JAK1 Ki
pKi: −log10 of the molar value.
Observed property: pKi

>>> print(df.to_string())
                                   molecule                         study_system  recorded_result
0  CC(C)C(=O)N1CC(c2nc3cnc4[nH]ccc4c3n2C2CCN(CCC#N)CC2)C1 [Example 389]  JAK1 (Homo sapiens, UniProt P23458)             7.96
1  CCN1CC[C@@H](n2c(C)nc3cnc4[nH]ccc4c32)[C@@H](F)C1 [Example 521]  JAK1 (Homo sapiens, UniProt P23458)             8.46
2  Cc1nc2cnc3[nH]ccc3c2n1C1CCC(NC(=O)N(C)CC(F)(F)F)CC1 (centres unmarked) [Example 749]  JAK1 (Homo sapiens, UniProt P23458)             8.55
3  CC(C)c1nccn1CCc1nc2cnc3[nH]ccc3c2n1C1CCN(CCC#N)CC1 [Example 816]  JAK1 (Homo sapiens, UniProt P23458)             8.11
4  Cc1nc2cnc3[nH]ccc3c2n1[C@@H]1CCCC(=O)C1 [Example 885]  JAK1 (Homo sapiens, UniProt P23458)             8.21
5  N#Cc1cccc(N2CCC(n3cnc4cnc5[nH]ccc5c43)CC2)n1 [Example 94]  JAK1 (Homo sapiens, UniProt P23458)             9.14
6  C[C@@H](O)c1nc2cnc3[nH]ccc3c2n1[C@@H]1COCCC1(F)F [Example 1012]  JAK1 (Homo sapiens, UniProt P23458)             8.03
7  O=C(Cc1nc2cnc3[nH]ccc3c2n1C1CCN(Cc2ccccc2)CC1)N1CCS(=O)(=O)CC1 [Example 102]  JAK1 (Homo sapiens, UniProt P23458)             8.24

###

- Study system: JAK2 (Homo sapiens, UniProt O60674)
- Construct: made in house; host or cells: SF9 insect cells (baculovirus)
- Sequence (O60674 812-1132): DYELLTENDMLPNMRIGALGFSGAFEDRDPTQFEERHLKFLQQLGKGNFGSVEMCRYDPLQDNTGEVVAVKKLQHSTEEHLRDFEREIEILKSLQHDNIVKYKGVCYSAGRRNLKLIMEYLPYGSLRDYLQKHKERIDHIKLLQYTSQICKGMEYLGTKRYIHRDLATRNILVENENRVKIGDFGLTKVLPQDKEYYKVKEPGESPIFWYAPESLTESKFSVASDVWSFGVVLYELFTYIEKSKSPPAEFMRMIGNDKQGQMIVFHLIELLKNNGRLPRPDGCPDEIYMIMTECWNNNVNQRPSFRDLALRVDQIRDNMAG
- Assay info: JAK2 inhibition (Table 4)
- Type: biochemical
- Study conditions: read-out: JAK2 Ki
Hi! Could you tag entries with Ki below 100 nM as Yes, and those at or above as No? Much appreciated.

                                    compound  assigned_category
 0  CC(=O)N1CCC(c2nc3cnc4[nH]ccc4c3n2C2CCN(CCC#N)CC2)C1 (racemic)                Yes
 1  CC(=O)N1CC[C@@H](n2cnc3cnc4[nH]ccc4c32)C1                 No
 2  N#CCCN1CCC(n2c(COCC(F)(F)F)nc3cnc4[nH]ccc4c32)CC1                 No
 3  O=S(=O)(C1CC1)N1CCC[C@@H](n2cnc3cnc4[nH]ccc4c32)C1                Yes
 4  C[C@@H](O)c1nc2cnc3[nH]ccc3c2n1[C@@H]1CCCN(C(=O)C2CC2)C1                 No
 5  O=C(C1CC1F)N1CCC[C@@H](n2cnc3cnc4[nH]ccc4c32)C1 (mixture of isomers)                Yes
 6  Cn1ncc2c1CC[C@@H](n1cnc3cnc4[nH]ccc4c31)C2                Yes
 7  CC(C)(C)OC(=O)N1CCC[C@@H](CN[C@H]2CC[C@H](n3cnc4cnc5[nH]ccc5c43)CC2)C1                 No
 8  CC(C)CC(=O)NCCc1nc2cnc3[nH]ccc3c2n1C1CCN(CCC#N)CC1                Yes
 9  NC1CCCC(n2cnc3cnc4[nH]ccc4c32)C1 (single isomer, unassigned) [Example 368]                Yes
10  c1cc2c(ncc3nc(C4CCCN4)n(C4CCCOC4)c32)[nH]1 (single isomer, unassigned) [Example 665]                 No
11  CC(C)(C)OC(=O)N1CCC[C@H]1C(=O)N1CCC(n2cnc3cnc4[nH]ccc4c32)CC1                 No
12  O=C(CS(=O)(=O)c1ccccc1)N1CCC[C@@H](n2cnc3cnc4[nH]ccc4c32)C1                Yes
13  O=C(Cc1nc2cnc3[nH]ccc3c2n1C1CCCOC1)N1CCSCC1 (racemic)                 No
14     FC(F)(F)c1nc2cnc3[nH]ccc3c2n1C1CCNCC1                 No
15  Cc1nc2cnc3[nH]ccc3c2n1C1CCC(NCC(F)(F)F)C1 (racemic)                Yes
16  N#Cc1ccccc1CN1CCC[C@@H](n2cnc3cnc4[nH]ccc4c32)C1                Yes

###

- Study system: TYK2 (Homo sapiens)
- Sequence (P29597 873-1187): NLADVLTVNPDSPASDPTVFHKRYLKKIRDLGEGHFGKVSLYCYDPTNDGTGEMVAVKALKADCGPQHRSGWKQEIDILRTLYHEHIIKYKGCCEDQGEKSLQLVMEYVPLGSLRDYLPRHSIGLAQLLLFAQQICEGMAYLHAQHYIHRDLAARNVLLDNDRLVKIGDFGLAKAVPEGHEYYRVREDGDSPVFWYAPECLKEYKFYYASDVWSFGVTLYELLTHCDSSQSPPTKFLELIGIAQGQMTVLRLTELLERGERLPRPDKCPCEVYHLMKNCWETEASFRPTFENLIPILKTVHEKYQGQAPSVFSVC
pKi: −log10 of the molar value.
# if value of pKi reaches 7, tag TRUE; if it stays below, tag FALSE

In [3]: df
Out[3]:
                                    compound         study_system  assigned_category
 0  Cc1nc2cnc3[nH]ccc3c2n1C1CCN(C(=O)[C@@H]2CCCN2C)CC1  TYK2 (Homo sapiens)              FALSE
 1     CC(=O)NCc1nc2cnc3[nH]ccc3c2n1C1CCNCC1  TYK2 (Homo sapiens)              FALSE
 2  O=C(Cc1nc2cnc3[nH]ccc3c2n1C1CCCOC1)N1CCC(CO)CC1 (racemic)  TYK2 (Homo sapiens)              FALSE
 3  CC(C(=O)N1CCC(n2cnc3cnc4[nH]ccc4c32)CC1)N(C)C (racemic)  TYK2 (Homo sapiens)              FALSE
 4         Cc1nc2cnc3[nH]ccc3c2n1[C@@H](C)CO  TYK2 (Homo sapiens)              FALSE
 5  CS(=O)(=O)CC[C@H]1CC[C@H](n2c(CO)nc3cnc4[nH]ccc4c32)CC1  TYK2 (Homo sapiens)               TRUE
 6  CCC(COC)n1c(C(C)O)nc2cnc3[nH]ccc3c21 (single isomer, unassigned) [Example 182a]  TYK2 (Homo sapiens)              FALSE
 7  CC1(C(=O)N2CCC(n3cnc4cnc5[nH]ccc5c43)CC2)CCCN1 (racemic)  TYK2 (Homo sapiens)              FALSE
 8  O=C(Cc1nc2cnc3[nH]ccc3c2n1C1CC2CCC1C2)N1CCC(O)CC1 (racemic)  TYK2 (Homo sapiens)               TRUE
 9  Cn1ccc(CCc2nc3cnc4[nH]ccc4c3n2C2CCN(CCC#N)CC2)n1  TYK2 (Homo sapiens)              FALSE
10  O=C([C@@H]1CCCN1C1CCC1)N1CCC(n2cnc3cnc4[nH]ccc4c32)CC1  TYK2 (Homo sapiens)              FALSE
11     OCCc1nc2cnc3[nH]ccc3c2n1[C@@H]1CCCNC1  TYK2 (Homo sapiens)              FALSE
12  CCC(COC)n1c(C)nc2cnc3[nH]ccc3c21 (racemic)  TYK2 (Homo sapiens)              FALSE
13     c1cc2c(ncc3ncn([C@H]4CCCNC4)c32)[nH]1  TYK2 (Homo sapiens)              FALSE
14         c1cc2c(ncc3nnn(C4CCOCC4)c32)[nH]1  TYK2 (Homo sapiens)              FALSE
15  Cc1nc2cnc3[nH]ccc3c2n1C1CCC2CC(=O)NC2C1 (single isomer, unassigned) [Example 112]  TYK2 (Homo sapiens)               TRUE
16  CS(=O)(=O)N1CCC(n2cnc3cnc4[nH]ccc4c32)CC1  TYK2 (Homo sapiens)               TRUE
17  CN1CCN(S(=O)(=O)NCCc2nc3cnc4[nH]ccc4c3n2C2CCCCC2)CC1  TYK2 (Homo sapiens)               TRUE
18  O=C([C@@H]1CCCN1)N1CCC(n2cnc3cnc4[nH]ccc4c32)CC1  TYK2 (Homo sapiens)              FALSE
19  Cc1nc2cnc3[nH]ccc3c2n1C1CNCCOC1 (centres unmarked)  TYK2 (Homo sapiens)              FALSE
20  OC[C@@H](O)c1nc2cnc3[nH]ccc3c2n1C1CCCCC1  TYK2 (Homo sapiens)               TRUE
21  O=C([C@H]1CC[C@H](n2cnc3cnc4[nH]ccc4c32)CC1)N1CCOCC1  TYK2 (Homo sapiens)              FALSE
22  CC(=O)N1CC[C@@H](n2cnc3cnc4[nH]ccc4c32)C1  TYK2 (Homo sapiens)              FALSE
23  CS(=O)(=O)NCc1nc2cnc3[nH]ccc3c2n1C1CCNCC1(F)F (racemic)  TYK2 (Homo sapiens)               TRUE
